The reported measurements were obtained from patent US20180362629A1.

# study.system: T1, recombinant canine β NGF (canine, UniProt Q29074 110-229 (pig entry))
# T1 construct: also called canine NGF
# T1 chain: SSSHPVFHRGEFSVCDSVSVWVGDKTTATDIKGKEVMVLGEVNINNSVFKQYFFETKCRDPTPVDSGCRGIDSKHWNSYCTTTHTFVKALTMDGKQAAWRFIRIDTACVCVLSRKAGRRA
# assay.remarks: direct ELISA, canine NGF coated at 1 µg/ml, mAb at 0.4 µg/ml
# absorbance at 450 nm per entry

PR-1254981 (antibody, mouse IgG1, V domains shown, also called 14A9; ML130-14A9.5B12) VH: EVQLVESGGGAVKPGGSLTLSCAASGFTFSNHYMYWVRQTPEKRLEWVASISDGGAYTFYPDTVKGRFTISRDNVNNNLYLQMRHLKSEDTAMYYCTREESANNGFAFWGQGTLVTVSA VL: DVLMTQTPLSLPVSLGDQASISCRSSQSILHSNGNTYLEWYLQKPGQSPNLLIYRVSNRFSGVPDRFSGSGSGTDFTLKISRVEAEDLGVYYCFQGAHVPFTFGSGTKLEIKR | 0.229 A450

# ---- query binder ----
The measured absorbance at 450 nm associated with PR-1254980 (antibody, mouse IgG1, V domains shown, also called 23F1; ML129-23F1.4G3) VH: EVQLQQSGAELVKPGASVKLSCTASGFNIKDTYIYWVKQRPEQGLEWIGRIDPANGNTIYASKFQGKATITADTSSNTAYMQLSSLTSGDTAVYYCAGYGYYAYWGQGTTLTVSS VL: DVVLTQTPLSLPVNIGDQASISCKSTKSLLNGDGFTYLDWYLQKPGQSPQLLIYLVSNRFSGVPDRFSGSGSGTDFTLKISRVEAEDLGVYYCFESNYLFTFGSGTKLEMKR reads 0.168 A450
